# TESTED ON: GlcNAc(b1-3)Gal(b1-4)GlcNAc(b1-3)GalNAc
# METHOD SUMMARY: glycan array binding signal (z-score within array); higher = stronger binding
# RECORDED CONDITIONS: glycan notation: IUPAC condensed, linker removed
This excerpt belongs to a sample that is enriched for the strongest signals.
READOUT NAME: glycan array binding signal (z-score)
Give bare numbers.

Identify glycan array binding signal (z-score) associated with the binder B936 (Bifidobacterium sp) (protein) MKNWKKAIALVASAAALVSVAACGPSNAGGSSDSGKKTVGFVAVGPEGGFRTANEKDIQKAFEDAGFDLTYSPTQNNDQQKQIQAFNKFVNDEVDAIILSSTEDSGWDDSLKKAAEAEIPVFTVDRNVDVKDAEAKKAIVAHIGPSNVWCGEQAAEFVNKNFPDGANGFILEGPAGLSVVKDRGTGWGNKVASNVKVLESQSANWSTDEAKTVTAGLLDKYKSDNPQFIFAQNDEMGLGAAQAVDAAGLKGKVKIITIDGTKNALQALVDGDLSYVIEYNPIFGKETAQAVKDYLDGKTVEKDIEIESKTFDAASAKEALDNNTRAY
-0.806
